Origin of the recorded values: the Human Domainome abundance scans (Beltran et al. 2025)

B1: Nuclear receptor subfamily 4 group A member 2, residues 260 to 336; numbered along this chain, P43354 (parent)
chain: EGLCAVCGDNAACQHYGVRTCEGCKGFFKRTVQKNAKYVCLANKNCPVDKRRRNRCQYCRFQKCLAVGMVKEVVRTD

Variants of: B1
run_description: abundance fitness (aPCA) (normalised: wild type 0, dead -1); higher = more abundant; growth selection in yeast, the domain comes from the species named
measurement_conditions: Homo sapiens
# abundance fitness per entry
recorded_endpoint: abundance fitness

[
  {
    "monomer_sequence": "EGLCAVCGDNAACQHYGVRTCEGCKGFFKRTVQKNAKYVCLANKNCPVDKRRRNRCQYCRFQECLAVGMVKEVVRTD",
    "reported": -0.898
  },
  {
    "monomer_sequence": "EGLCAVCGDNAACQHYGVRTCEGCKGFFKRTVQKNAKYVCLANKNCPVDKRRRNRCQYCRFQKCLAVGMKKEVVRTD",
    "reported": -0.208
  },
  {
    "monomer_sequence": "EGLCAVCGDNAACQHYGVRTCEGCKGFFKRTVQKNAKYVCLSNKNCPVDKRRRNRCQYCRFQKCLAVGMVKEVVRTD",
    "reported": 0.048
  },
  {
    "monomer_sequence": "EGLCAVCGDNAACQHYGVRTCEGCKGFFKRTVQKNAKYVCLANKNCPVDKRRRNRCQYCRFQKCLAVGMLKEVVRTD",
    "reported": -0.023
  },
  {
    "monomer_sequence": "EGLCAVCGDNAACQHYGVYTCEGCKGFFKRTVQKNAKYVCLANKNCPVDKRRRNRCQYCRFQKCLAVGMVKEVVRTD",
    "reported": -0.12
  },
  {
    "monomer_sequence": "EGLCAVCGDNAACQHYGVRTCEGCKGFFKRTVQKNAKYVCLANKNCPVDKRRRNRCQYCRFQKCLAVGMVKEVVWTD",
    "reported": -0.103
  },
  {
    "monomer_sequence": "EGLCAVCGDNAACQHYGVRTCEGCKGFFKRTVQKNAKYVCLANKNCPVDKRRRNRCQYCRIQKCLAVGMVKEVVRTD",
    "reported": 0.007
  },
  {
    "monomer_sequence": "EGLCAVCGDNAACQHYGVRTCEGCKGFFKRTVQKNAKYVCLANKNCPVFKRRRNRCQYCRFQKCLAVGMVKEVVRTD",
    "reported": -0.204
  },
  {
    "monomer_sequence": "EGLCAVCGDNAACQHYGVRTCEGCKGFFKRTVQKNAKYVCLANKNCIVDKRRRNRCQYCRFQKCLAVGMVKEVVRTD",
    "reported": 0.009
  },
  {
    "monomer_sequence": "EGLCAVCGDNAACQHYGVRTCEGCKGFFKRTVQKNADYVCLANKNCPVDKRRRNRCQYCRFQKCLAVGMVKEVVRTD",
    "reported": -0.07
  },
  {
    "monomer_sequence": "EGLCAVCGDNAACQHYCVRTCEGCKGFFKRTVQKNAKYVCLANKNCPVDKRRRNRCQYCRFQKCLAVGMVKEVVRTD",
    "reported": 0.255
  },
  {
    "monomer_sequence": "EGLCAVCGDNAACQHYGVRTCEGCKGFFKRTVQKNAKYVCLANKNCPVDKRRRARCQYCRFQKCLAVGMVKEVVRTD",
    "reported": -0.148
  },
  {
    "monomer_sequence": "EGLCAVCGDNAACQHYGVWTCEGCKGFFKRTVQKNAKYVCLANKNCPVDKRRRNRCQYCRFQKCLAVGMVKEVVRTD",
    "reported": -0.053
  },
  {
    "monomer_sequence": "EGLCAVCGDNAACQHYGVRTCEGCKGFFKRTVQKNAKYVCLANKNCPVDKRRRNRCWYCRFQKCLAVGMVKEVVRTD",
    "reported": -0.28
  },
  {
    "monomer_sequence": "EGLCAVCGDNAACQHYGVRTCEGCKGFFKRTVQKNAKYVCLANKNCPVDKRRRNRCQYCRFQKCLNVGMVKEVVRTD",
    "reported": 0.101
  },
  {
    "monomer_sequence": "EGLCAVCGDNAACQHYGVRTCEGCKGFFKRTVQKNAKYWCLANKNCPVDKRRRNRCQYCRFQKCLAVGMVKEVVRTD",
    "reported": 0.017
  }
]
